# Test system: carrageenan-induced paw edema in rats
# ASSAY_REMARKS: Anti-inflammatory activity, carrageenan-induced paw edema test
# Type: in vivo
# TEST_SETTINGS: 20 mg/kg oral, 2 h after carrageenan, mean ± SD (n = 6)
Readings of Percent anti-inflammatory activity (percent inhibition of paw edema) for the listed compounds
RECORDED_METRIC: Percent anti-inflammatory activity (percent inhibition of paw edema) (%)

COMPOUND	MEASURE_UNIT	RESULT_NUMBER
CCC(C)=Nc1ccc(N=C2C(=O)Nc3ccc(F)cc32)cc1	%	58
CCCC(C)=Nc1ccc(N=C2C(=O)Nc3ccc(F)cc32)cc1	%	66
O=C(O)Cc1ccccc1Nc1c(Cl)cccc1Cl [Diclofenac, Diclofenac sodium, reference compound]	%	60
O=C1Nc2ccc(F)cc2C1=Nc1ccc(N=C2CCCCC2)cc1	%	60
COc1ccc(C=Nc2ccc(N=C3C(=O)Nc4ccc(F)cc43)cc2)cc1	%	58
